Quick reference: MIC of the listed items.
# Tested on: Bacteroides ovatus A22400
# measurement_notes: MIC, serial two-fold dilution method (anaerobic)
# Assay type: cell-based
# settings: Bacteroides ovatus A22400; GAM agar medium; inoculum 10^7-10^8; read-out: minimum inhibitory concentration (MIC)
measure_name: MIC (µg/mL)

1. CC1(C)S[C@@H]2[C@H](NC(=O)[C@H](N)c3ccccc3)C(=O)N2[C@H]1C(=O)O
25
2. O=C(N[C@H](CO)[C@H](O)c1ccc([N+](=O)[O-])cc1)C(Cl)Cl
1.6
3. CCC[C@@H]1C[C@@H](C(=O)N[C@@H]([C@H]2O[C@H](SC)[C@H](O)[C@@H](O)[C@H]2O)[C@H](C)Cl)N(C)C1
6.3

* * *

# System: Micrococcus flavus D-12
# measurement_notes: MIC, serial two-fold dilution method (aerobic)
# Assay type: cell-based
# settings: D12; Micrococcus flavus D-12; Mueller-Hinton agar; inoculum 10^4; read-out: minimum inhibitory concentration (MIC)
List of MIC values.
measure_name: MIC (µg/mL)

1) CC1(C)S[C@@H]2[C@H](NC(=O)[C@H](N)c3ccccc3)C(=O)N2[C@H]1C(=O)O [Ampicillin]
0.1
2) O=C(N[C@H](CO)[C@H](O)c1ccc([N+](=O)[O-])cc1)C(Cl)Cl [Chloramphenicol]
1.6
3) NC[C@H]1O[C@H](O[C@H]2[C@H](O)[C@@H](O[C@H]3O[C@H](CO)[C@@H](O)[C@H](N)[C@H]3O)[C@H](N)C[C@@H]2N)[C@H](O)[C@@H](O)[C@@H]1O [Kanamycin]
3.1

* * *

# System: Clostridium difficile A21675
# measurement_notes: MIC, serial two-fold dilution method (anaerobic)
# Format: cell-based
# settings: Clostridioides difficile; Clostridium difficile A21675; GAM agar medium; inoculum 10^7-10^8; read-out: minimum inhibitory concentration (MIC)
# MIC per record follows
measure_name: MIC

1) O=C(N[C@H](CO)[C@H](O)c1ccc([N+](=O)[O-])cc1)C(Cl)Cl
3.1 µg/mL
2) CC1(C)S[C@@H]2[C@H](NC(=O)[C@H](N)c3ccccc3)C(=O)N2[C@H]1C(=O)O
1.6 µg/mL
3) CCC[C@@H]1C[C@@H](C(=O)N[C@@H]([C@H]2O[C@H](SC)[C@H](O)[C@@H](O)[C@H]2O)[C@H](C)Cl)N(C)C1
100 µg/mL
4) CC[C@H]1OC(=O)[C@H](C)[C@@H](O[C@H]2C[C@@](C)(OC)[C@@H](O)[C@H](C)O2)[C@H](C)[C@@H](O[C@@H]2O[C@H](C)C[C@H](N(C)C)[C@H]2O)[C@](C)(O)C[C@@H](C)C(=O)[C@H](C)[C@@H](O)[C@]1(C)O
> 100 µg/mL

* * *

Consider the following compounds and their measured MIC readings.
# Test system: Clostridium perfringens A22787
# measurement_notes: microbe, parasite or virus in culture
# Type: cell-based
# settings: Clostridium perfringens, A22787, read-out: minimum inhibitory concentration (MIC)
measure_name: MIC (µg/mL)

1) CC1(C)S[C@@H]2[C@H](NC(=O)[C@H](N)c3ccccc3)C(=O)N2[C@H]1C(=O)O [Ampicillin]
0.1
2) CCC[C@@H]1C[C@@H](C(=O)N[C@@H]([C@H]2O[C@H](SC)[C@H](O)[C@@H](O)[C@H]2O)[C@H](C)Cl)N(C)C1 [Clindamycin]
50
3) O=C(N[C@H](CO)[C@H](O)c1ccc([N+](=O)[O-])cc1)C(Cl)Cl [Chloramphenicol]
6.3
4) CN[C@H](CC(C)C)C(=O)N[C@H]1C(=O)N[C@@H](CC(N)=O)C(=O)N[C@H]2C(=O)N[C@H]3C(=O)N[C@H](C(=O)N[C@H](C(=O)O)c4cc(O)cc(O)c4-c4cc3ccc4O)[C@H](O)c3ccc(c(Cl)c3)Oc3cc2cc(c3O[C@@H]2O[C@H](CO)[C@@H](O)[C@H](O)[C@H]2O[C@H]2C[C@](C)(N)[C@H](O)[C@H](C)O2)Oc2ccc(cc2Cl)[C@H]1O [Vancomycin]
0.8
